Known composite z-score of a selection of compounds
# assay method text: binders from COS7 lysate, DM2A8 probe, primary screen, torsin A project, cell lysate, small-molecule microarray, fluorescence 635/667 (AID 1065)
# measurement context: higher = more signal, COS7 lysate expressing mutant human TOR1A
Quick one: just the number, no unit, thanks!

Problem: Could you please provide reported composite z-score for `COC(=O)[C@@H]1CC[C@H](C)[C@@H](c2ccc(C)cc2)N1C(=O)c1ccc(C=NO[C@H](C)c2cn([C@H](CO)Cc3ccccc3)nn2)cc1` ? Thanks!
Result: 0.522

Problem: Tell us which composite z-score value is on record for `C[C@@H](c1ccccc1)N1C(=O)[C@H]2[C@H]3[C@H](O)[C@H](O)CC(=NO[C@@H]4O[C@H](CO)[C@@H](O)[C@H](O)[C@H]4O)[C@H]3CC[C@H]2C1=O`
Result: -0.0577
